Origin of the recorded values: patent US20030148958A1

Target: CRF1R
Experiment: cell-based or functional assay
Ends that are not written are not given here.
Please provide measured CRF1R EC50 for the entries that follow.
# output: bare number, implied unit nM

QUERY: Given the entry ZGPPISIDLPLYLLRKMIEIEKQEKEKQQATTNARLLDTV (C-terminal amide) [SEQ ID NO 242] , report its measured CRF1R EC50.
RESULT: 358

QUERY: Given the entry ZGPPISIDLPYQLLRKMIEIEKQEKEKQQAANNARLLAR (C-terminal amide) [SEQ ID NO 288] , report its measured CRF1R EC50.
RESULT: 838

QUERY: Given the entry NDDPPISIDLPTYLLRNMIEMARIENEREQAGLNAKYLAEV-NH2 [SEQ ID NO 266] , report its measured CRF1R EC50.
RESULT: 1000

QUERY: Given the entry ZGPPISIDLPFQLLRVLIEIEKQEKEKQQAANNALLLATI (C-terminal amide) [SEQ ID NO 361] , report its measured CRF1R EC50.
RESULT: 149

QUERY: Given the entry ZGPPISIDLPFQLLRKLIEIEKQEKEKQQAANNALLLATI (C-terminal amide) [SEQ ID NO 357] , report its measured CRF1R EC50.
RESULT: 331

QUERY: Given the entry DNPSLSIDLPLFLLRTLLELEKTQSQRERAEQNARIFDRV-NH2 [SEQ ID NO 336] , report its measured CRF1R EC50.
RESULT: 1000
